Molecular target: CYP3A4 (Homo sapiens)
Sequence (P08684 whole entry): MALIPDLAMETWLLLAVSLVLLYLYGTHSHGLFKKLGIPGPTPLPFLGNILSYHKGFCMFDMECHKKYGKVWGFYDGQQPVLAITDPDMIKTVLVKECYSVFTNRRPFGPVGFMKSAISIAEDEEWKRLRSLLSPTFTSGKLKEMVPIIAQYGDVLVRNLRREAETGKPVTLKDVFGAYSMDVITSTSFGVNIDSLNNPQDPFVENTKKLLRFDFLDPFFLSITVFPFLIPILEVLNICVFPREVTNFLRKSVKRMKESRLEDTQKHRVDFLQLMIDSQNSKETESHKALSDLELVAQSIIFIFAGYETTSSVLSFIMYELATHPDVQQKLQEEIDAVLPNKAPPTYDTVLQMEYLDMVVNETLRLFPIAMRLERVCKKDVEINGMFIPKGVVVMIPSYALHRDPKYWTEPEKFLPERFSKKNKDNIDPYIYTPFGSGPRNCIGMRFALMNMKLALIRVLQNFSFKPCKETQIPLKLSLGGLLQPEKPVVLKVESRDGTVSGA
Experiment: Human CYP450 inhibition in human liver microsomes, CYP3A4
Type: in vitro ADME
Settings: pooled human liver microsomes, probe midazolam (1 μM), 1′-hydroxylation
measure-name: IC50 at 5 min

Lookup: Given COc1cc2ncnc(Nc3cccc(Cl)c3F)c2cc1OCCON1CCN(C)CC1 , state its recorded IC50 at 5 min.
Found: > 30 µM

----------
Tested on: Caco-2 cells
Assay: Caco-2 cell permeability assay
Type: in vitro ADME
Settings: result in words
measure-name: efflux

COc1cc2ncnc(Nc3cccc(Cl)c3F)c2cc1OCCON1CCN(C)CC1 [Compound 15] = reduced efflux ratios
COc1cc2ncnc(Nc3cccc(Cl)c3F)c2cc1OCCON1CCOCC1 [Compound 13] = reduced efflux ratios
